Test: in vivo
Settings: male, beagle, dog, po, 10 mg/kg
assay-endpoint: AUC(0-inf) (ng·h/mL)

COC[C@@H](NC(=O)C1CCCC(F)(F)C1)C(=O)N[C@H](Cc1ccccc1)C(=O)C(=O)NCc1nccs1 (stereo partly shown) | 8290

----------
Test system: SARS-CoV-2 (BA.2)
Experiment: Plaque reduction assay in VeroE6-TMPRSS2
Assay type: cell-based
Conditions: Severe acute respiratory syndrome coronavirus 2
assay-endpoint: EC50 (nM)

CC(C)(C)[C@H](NC(=O)C(F)(F)F)C(=O)N1C[C@H]2[C@@H]([C@H]1C(=O)N[C@H](C#N)C[C@@H]1CCNC1=O)C2(C)C [Nirmatrelvir, reference compound] | 1080

----------
Experiment: in vivo
Conditions: male, Sprague-Dawley, rat, po, 10 mg/kg
Listing of entries alongside the reported AUC(0-inf).
assay-endpoint: AUC(0-inf) (ng·h/mL)

COC[C@@H](NC(=O)CC1CC(F)(F)C1)C(=O)N[C@H](Cc1ccccc1)C(=O)C(=O)NCc1nccs1 | 11200
C[C@@H](NC(=O)CC1CC(F)(F)C1)C(=O)N[C@H](Cc1ccccc1)C(=O)C(=O)NCc1nccs1 | 8700
COC[C@@H](NC(=O)C1CCC(F)(F)CC1)C(=O)N[C@H](Cc1ccccc1)C(=O)C(=O)NCc1nccs1 | 14000
C[C@@H](NC(=O)C1CCC(F)(F)C1)C(=O)N[C@H](Cc1ccccc1)C(=O)C(=O)NCc1nccs1 (stereo partly drawn) | 6900
C[C@@H](NC(=O)C1CCC(F)(F)CC1)C(=O)N[C@H](Cc1ccccc1)C(=O)C(=O)NCc1nccs1 | 2840
COC[C@@H](NC(=O)C1CCCC(F)(F)C1)C(=O)N[C@H](Cc1ccccc1)C(=O)C(=O)NCc1nccs1 (stereo partly drawn) | 20200

----------
Assay: in vivo
Details: male, ICR, mouse, iv, 1 mg/kg
assay-endpoint: Tmax (min)

COC[C@@H](NC(=O)C1CCCC(F)(F)C1)C(=O)N[C@H](Cc1ccccc1)C(=O)C(=O)NCc1nccs1 (stereo partly shown) | 4.8

----------
Assay: in vivo
Details: male, Sprague-Dawley, rat, po, 10 mg/kg
assay-endpoint: Cmax (ng/mL)

COC[C@@H](NC(=O)CC1CC(F)(F)C1)C(=O)N[C@H](Cc1ccccc1)C(=O)C(=O)NCc1nccs1 [3x] | 806
COC[C@@H](NC(=O)C1CCC(F)(F)CC1)C(=O)N[C@H](Cc1ccccc1)C(=O)C(=O)NCc1nccs1 [3v] | 1010
C[C@@H](NC(=O)C1CCC(F)(F)CC1)C(=O)N[C@H](Cc1ccccc1)C(=O)C(=O)NCc1nccs1 [3r] | 306
COC[C@@H](NC(=O)C1CCCC(F)(F)C1)C(=O)N[C@H](Cc1ccccc1)C(=O)C(=O)NCc1nccs1 (stereo partly drawn) [SY110] | 1430
C[C@@H](NC(=O)C1CCC(F)(F)C1)C(=O)N[C@H](Cc1ccccc1)C(=O)C(=O)NCc1nccs1 (stereo partly drawn) [3t] | 635
C[C@@H](NC(=O)CC1CC(F)(F)C1)C(=O)N[C@H](Cc1ccccc1)C(=O)C(=O)NCc1nccs1 [3u] | 735

----------
Biological target: UniProt:P10635
Sequence (P10635 whole entry): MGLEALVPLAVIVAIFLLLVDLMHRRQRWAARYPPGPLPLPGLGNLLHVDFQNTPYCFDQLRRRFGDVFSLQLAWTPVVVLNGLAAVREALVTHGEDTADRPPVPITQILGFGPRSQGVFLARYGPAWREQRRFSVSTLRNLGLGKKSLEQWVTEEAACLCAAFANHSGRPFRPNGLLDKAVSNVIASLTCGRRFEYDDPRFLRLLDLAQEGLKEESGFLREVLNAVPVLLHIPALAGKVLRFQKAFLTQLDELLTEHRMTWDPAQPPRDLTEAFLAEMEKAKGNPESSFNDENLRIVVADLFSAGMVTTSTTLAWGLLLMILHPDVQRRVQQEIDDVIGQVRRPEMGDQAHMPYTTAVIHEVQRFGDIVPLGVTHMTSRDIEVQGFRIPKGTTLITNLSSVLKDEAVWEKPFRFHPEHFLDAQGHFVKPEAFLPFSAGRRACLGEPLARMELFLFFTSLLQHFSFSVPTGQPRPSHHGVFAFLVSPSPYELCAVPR
assay-endpoint: IC50

COC[C@@H](NC(=O)C1CCCC(F)(F)C1)C(=O)N[C@H](Cc1ccccc1)C(=O)C(=O)NCc1nccs1 (stereo partly shown) [SY110] | > 30 µM

----------
Experiment: in vivo
Conditions: male, beagle, dog, iv, 1 mg/kg
assay-endpoint: clearance (mL/min/kg)

COC[C@@H](NC(=O)C1CCCC(F)(F)C1)C(=O)N[C@H](Cc1ccccc1)C(=O)C(=O)NCc1nccs1 (stereo partly shown) | 27.1

----------
Biological target: CYP3A4 (Homo sapiens, UniProt P08684)
Construct: Add 400 μL 0.2 mg/mL HLM; from tissue; host or cells: human liver microsomes (HLM)
Sequence (P08684 whole entry): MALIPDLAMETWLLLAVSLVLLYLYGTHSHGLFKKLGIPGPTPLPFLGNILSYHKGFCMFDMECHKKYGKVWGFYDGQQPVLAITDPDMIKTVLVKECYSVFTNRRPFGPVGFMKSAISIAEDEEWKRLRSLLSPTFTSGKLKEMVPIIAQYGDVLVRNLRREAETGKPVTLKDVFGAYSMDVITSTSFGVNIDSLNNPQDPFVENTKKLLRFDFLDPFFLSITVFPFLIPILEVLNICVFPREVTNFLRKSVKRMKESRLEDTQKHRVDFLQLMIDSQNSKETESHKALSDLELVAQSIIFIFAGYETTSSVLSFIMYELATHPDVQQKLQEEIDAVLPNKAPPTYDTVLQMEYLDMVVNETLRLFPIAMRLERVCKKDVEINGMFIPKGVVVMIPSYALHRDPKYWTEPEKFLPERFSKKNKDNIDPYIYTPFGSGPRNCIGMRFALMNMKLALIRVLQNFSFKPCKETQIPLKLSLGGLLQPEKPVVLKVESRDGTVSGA
Assay: biochemical
Type: in vitro ADME
Details: CYP3A4 (Midazolam), HLM
pIC50: −log10 of the molar value.
assay-endpoint: pIC50

COC[C@@H](NC(=O)C1CCCC(F)(F)C1)C(=O)N[C@H](Cc1ccccc1)C(=O)C(=O)NCc1nccs1 (stereo partly shown) [SY110] | < 4.52

----------
Assay: in vivo
Settings: male, Sprague-Dawley, rat, po, 10 mg/kg
Rule: Tmax below 2 h gives met, anything at or above gives not met.

C[C@@H](NC(=O)CC1CC(F)(F)C1)C(=O)N[C@H](Cc1ccccc1)C(=O)C(=O)NCc1nccs1 [3u] | met
COC[C@@H](NC(=O)C1CCC(F)(F)CC1)C(=O)N[C@H](Cc1ccccc1)C(=O)C(=O)NCc1nccs1 [3v] | not met
C[C@@H](NC(=O)C1CCC(F)(F)C1)C(=O)N[C@H](Cc1ccccc1)C(=O)C(=O)NCc1nccs1 (stereo partly drawn) [3t] | met
C[C@@H](NC(=O)C1CCC(F)(F)CC1)C(=O)N[C@H](Cc1ccccc1)C(=O)C(=O)NCc1nccs1 [3r] | not met
COC[C@@H](NC(=O)C1CCCC(F)(F)C1)C(=O)N[C@H](Cc1ccccc1)C(=O)C(=O)NCc1nccs1 (stereo partly drawn) [SY110] | not met

----------
Experiment: in vivo
Conditions: male, ICR, mouse, po, 150 mg/kg
assay-endpoint: Cmax (ng/mL)

COC[C@@H](NC(=O)C1CCCC(F)(F)C1)C(=O)N[C@H](Cc1ccccc1)C(=O)C(=O)NCc1nccs1 (stereo partly shown) | 4080

----------
Assay: in vivo
Conditions: male, cynomolgus monkey, po, 10 mg/kg
assay-endpoint: AUC(0-t) (ng·h/mL)

COC[C@@H](NC(=O)C1CCCC(F)(F)C1)C(=O)N[C@H](Cc1ccccc1)C(=O)C(=O)NCc1nccs1 (stereo partly shown) | 1220

----------
Assay: in vivo
Details: male, cynomolgus monkey, po, 10 mg/kg
assay-endpoint: bioavailability

COC[C@@H](NC(=O)C1CCCC(F)(F)C1)C(=O)N[C@H](Cc1ccccc1)C(=O)C(=O)NCc1nccs1 (stereo partly shown) [SY110] | 24.4%

----------
Test: in vivo
Conditions: male, ICR, mouse, iv, 1 mg/kg
assay-endpoint: Cmax (ng/mL)

COC[C@@H](NC(=O)C1CCCC(F)(F)C1)C(=O)N[C@H](Cc1ccccc1)C(=O)C(=O)NCc1nccs1 (stereo partly shown) | 285

----------
Assay: in vitro
Format: in vitro ADME
Details: human, microsomes; HLM 0.5 mg/mL, 1 μM, 5 min, Mean; read-out: Percent Remaining (%) 5 min
assay-endpoint: remaining at 5 min (%)

O=C(c1ccc(F)cc1)C1CCN(CCn2c(=O)[nH]c3ccccc3c2=O)CC1 [Ketanserin, reference compound] | 86.9
COC[C@@H](NC(=O)C1CCC(F)(F)CC1)C(=O)N[C@H](Cc1ccccc1)C(=O)C(=O)NCc1nccs1 [3v] | 88.3
O=C(CC1CC(F)(F)C1)NCC(=O)N[C@H](Cc1ccccc1)C(=O)C(=O)NCc1nccs1 [3q] | 86
C[C@@H](NC(=O)C1CCC(F)(F)CC1)C(=O)N[C@H](Cc1ccccc1)C(=O)C(=O)NCc1nccs1 [3r] | 91.5
CC(C)(C)[C@H](NC(=O)C(F)(F)F)C(=O)N1C[C@H]2[C@@H]([C@H]1C(=O)N[C@H](C#N)C[C@@H]1CCNC1=O)C2(C)C [Nirmatrelvir, reference compound] | 86.5

----------
Assay: in vitro
Assay type: in vitro ADME, human
Conditions: human plasma, equilibrium dialysis; read-out: plasma unbound fraction
assay-endpoint: fraction unbound

COC[C@@H](NC(=O)C1CCCC(F)(F)C1)C(=O)N[C@H](Cc1ccccc1)C(=O)C(=O)NCc1nccs1 (stereo partly shown) | 0.301

----------
Experiment: in vitro
Format: cell-based
Settings: human; BEAS-2B, MTT, 72 h
assay-endpoint: CC50

COC[C@@H](NC(=O)C1CCC(F)(F)CC1)C(=O)N[C@H](Cc1ccccc1)C(=O)C(=O)NCc1nccs1 | 159 µM
COC[C@@H](NC(=O)C1CCCC(F)(F)C1)C(=O)N[C@H](Cc1ccccc1)C(=O)C(=O)NCc1nccs1 (stereo partly drawn) | > 500 µM
C[C@@H](NC(=O)CC1CC(F)(F)C1)C(=O)N[C@H](Cc1ccccc1)C(=O)C(=O)NCc1nccs1 | > 500 µM
C[C@@H](NC(=O)C1CCC(F)(F)CC1)C(=O)N[C@H](Cc1ccccc1)C(=O)C(=O)NCc1nccs1 | > 500 µM
C[C@@H](NC(=O)C1CCC(F)(F)C1)C(=O)N[C@H](Cc1ccccc1)C(=O)C(=O)NCc1nccs1 (stereo partly drawn) | > 500 µM
COC[C@@H](NC(=O)CC1CC(F)(F)C1)C(=O)N[C@H](Cc1ccccc1)C(=O)C(=O)NCc1nccs1 | > 500 µM

----------
bioavailability listing for selected compounds.
Assay: in vivo
Details: male, Sprague-Dawley, rat, po, 10 mg/kg
assay-endpoint: bioavailability (%)

COC[C@@H](NC(=O)C1CCCC(F)(F)C1)C(=O)N[C@H](Cc1ccccc1)C(=O)C(=O)NCc1nccs1 (stereo partly drawn) | 82.8
C[C@@H](NC(=O)C1CCC(F)(F)CC1)C(=O)N[C@H](Cc1ccccc1)C(=O)C(=O)NCc1nccs1 | 25.4
COC[C@@H](NC(=O)CC1CC(F)(F)C1)C(=O)N[C@H](Cc1ccccc1)C(=O)C(=O)NCc1nccs1 | 45.8
COC[C@@H](NC(=O)C1CCC(F)(F)CC1)C(=O)N[C@H](Cc1ccccc1)C(=O)C(=O)NCc1nccs1 | 49.2
C[C@@H](NC(=O)C1CCC(F)(F)C1)C(=O)N[C@H](Cc1ccccc1)C(=O)C(=O)NCc1nccs1 (stereo partly drawn) | 52
C[C@@H](NC(=O)CC1CC(F)(F)C1)C(=O)N[C@H](Cc1ccccc1)C(=O)C(=O)NCc1nccs1 | 37.2
